All values here come from the supplement of paper PMC8728848.

ASSAY TARGET: MurNAc(b1-4)GlcNAc
METHOD: glycan array binding signal (z-score within array); higher = stronger binding
CONDITIONS: glycan notation: IUPAC condensed, linker removed
This excerpt belongs to a sample that is enriched for the strongest signals.
READOUT NAME: glycan array binding signal (z-score)
# output: bare number, no unit

**Q:** I have this binder here, OVGAL11 (Ovis aries), AAF64320 (protein) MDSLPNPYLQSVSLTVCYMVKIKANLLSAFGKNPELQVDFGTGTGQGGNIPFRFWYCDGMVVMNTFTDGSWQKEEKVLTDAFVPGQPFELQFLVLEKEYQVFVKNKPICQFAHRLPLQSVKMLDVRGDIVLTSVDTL , and I need its recorded glycan array binding signal (z-score).
**A:** -0.098

**Q:** Look up glycan array binding signal (z-score): DBA (Dolichos biflorus) (protein) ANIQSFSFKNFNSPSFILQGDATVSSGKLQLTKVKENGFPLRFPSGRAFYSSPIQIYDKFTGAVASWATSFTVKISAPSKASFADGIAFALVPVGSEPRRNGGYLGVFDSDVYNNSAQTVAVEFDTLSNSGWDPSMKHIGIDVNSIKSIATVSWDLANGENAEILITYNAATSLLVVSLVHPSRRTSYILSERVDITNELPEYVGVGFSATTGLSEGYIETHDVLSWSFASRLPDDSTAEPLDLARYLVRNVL
**A:** -0.119

**Q:** Tell me the measured glycan array binding signal (z-score) of LlpA (Arthrobacter sp) (protein) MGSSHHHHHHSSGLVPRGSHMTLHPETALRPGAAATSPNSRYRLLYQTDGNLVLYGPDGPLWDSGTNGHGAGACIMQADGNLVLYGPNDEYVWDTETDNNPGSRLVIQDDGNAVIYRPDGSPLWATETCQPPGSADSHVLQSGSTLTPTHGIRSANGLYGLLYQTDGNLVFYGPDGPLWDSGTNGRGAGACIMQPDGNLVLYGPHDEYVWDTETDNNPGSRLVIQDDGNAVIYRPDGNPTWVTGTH , please.
**A:** -0.798
